biological target: HLA-B*15:01; assay: IEDB peptide-MHC binding, purified MHC/direct/fluorescence; filed as Kd, often an IC50 or EC50 that approximates it; bounds were set here for any values at or beyond the usual limits of such assays; details: source organism: Orthohantavirus moroense
property-label: Kd (nM)
Answers are plain numbers, in nM.

Input line: Would you kindly share the measured Kd for "ATKDSFQSF" ?
Output line: 372

----------
target: HLA-B*18:01; assay: IEDB peptide-MHC binding, purified MHC/direct/fluorescence; filed as Kd, often an IC50 or EC50 that approximates it; bounds were set here for any values at or beyond the usual limits of such assays; details: source organism: Camelpox virus M-96
property-label: Kd (nM)
Numbers only, in nM.

Input line: Would you kindly share the measured Kd for "KELENEYYF" ?
Output line: 19.8

----------
molecular target: HLA-A*31:01; experiment: IEDB peptide-MHC binding, purified MHC/direct/fluorescence; filed as Kd, often an IC50 or EC50 that approximates it; bounds were set here for any values at or beyond the usual limits of such assays; conditions: source organism: Influenza A virus (A/equine/Massachussetts/213/2003(H3N8))
property-label: Kd

Input line: I'm curious: which Kd was measured for "ILKGKFQTA" tested on HLA-A*31:01?
Output line: ≥ 20 µM

----------
biological target: HLA-A*30:01; experiment: IEDB peptide-MHC binding, purified MHC/competitive/radioactivity; filed as Kd, often an IC50 or EC50 that approximates it; bounds were set here for any values at or beyond the usual limits of such assays; settings: source organism: Dengue virus 2 Jamaica/1409/1983
Doc: threshold 500 nM (exclusive). Items with Kd beneath it return 1.0; others return 0.0.

A selection of reference data follows.
INSERT INTO measurements (sequence_string, assigned_label) VALUES
  ('ATREAQKRA', 1.0),
  ('TTRNGEPHM', 0.0),
  ('KITAEWLWK', 0.0),
  ('GIFMTATPPG', 0.0);

Now examine the next entry.
Input line: Threshold test, Kd < 500 nM: "RARISQGAG"
Output line: 1.0

----------
target: HLA-C*06:02; assay: IEDB peptide-MHC binding, purified MHC/direct/fluorescence; filed as Kd, often an IC50 or EC50 that approximates it; bounds were set here for any values at or beyond the usual limits of such assays; conditions: source organism: Yersinia pestis Nepal516
pKd: −log10 of the molar value.
property-label: pKd

Input line: Would you kindly share the measured pKd for "MMMSTAVAF" ?
Output line: ≤ 4.70

----------
biological target: HLA-A*02:01; test: IEDB peptide-MHC binding, purified MHC/competitive/fluorescence; filed as Kd, often an IC50 or EC50 that approximates it; bounds were set here for any values at or beyond the usual limits of such assays; conditions: source organism: Pleistophora sp. LS
property-label: Kd
Lab note: write values as number then unit, every time.

Input line: Would you kindly share the measured Kd for "VELQIGWTV" ?
Output line: 0.239 µM

----------
molecular target: HLA-A*02:11; experiment: IEDB peptide-MHC binding, purified MHC/direct/fluorescence; filed as Kd, often an IC50 or EC50 that approximates it; bounds were set here for any values at or beyond the usual limits of such assays; conditions: source organism: Giardia lamblia ATCC 50803
property-label: Kd

Input line: Would you kindly share the measured Kd for "MHDPHSIPL" ?
Output line: ≥ 20 µM

----------
target: HLA-B*15:01; test: IEDB peptide-MHC binding, purified MHC/competitive/fluorescence; filed as Kd, often an IC50 or EC50 that approximates it; bounds were set here for any values at or beyond the usual limits of such assays; conditions: source organism: Coxiella burnetii 'MSU Goat Q177'
property-label: Kd

Input line: Would you kindly share the measured Kd for "YYLIKYLHV" ?
Output line: ≥ 20 µM

----------
target: HLA-B*15:01; assay: IEDB peptide-MHC binding, purified MHC/competitive/fluorescence; bounds were set here for any values at or beyond the usual limits of such assays; settings: source organism: Sudan ebolavirus
property-label: IC50

Input line: Would you kindly share the measured IC50 for "VVTNSTLEV" ?
Output line: ≥ 114 µM

----------
target: HLA-A*24:03; experiment: IEDB peptide-MHC binding, purified MHC/direct/fluorescence; filed as Kd, often an IC50 or EC50 that approximates it; bounds were set here for any values at or beyond the usual limits of such assays; details: source organism: Encephalitozoon cuniculi GB-M1
pKd: −log10 of the molar value.
property-label: pKd

Input line: Would you kindly share the measured pKd for "FSFFMNENF" ?
Output line: ≤ 4.70

----------
molecular target: HLA-B*83:01; experiment: IEDB peptide-MHC binding, purified MHC/competitive/fluorescence; filed as Kd, often an IC50 or EC50 that approximates it; bounds were set here for any values at or beyond the usual limits of such assays; details: source organism: Pan troglodytes
property-label: Kd

Input line: Would you kindly share the measured Kd for "RRHWGGNVL" ?
Output line: ≥ 5 µM

----------
biological target: HLA-A*02:01; assay: IEDB peptide-MHC binding, purified MHC/competitive/radioactivity; filed as Kd, often an IC50 or EC50 that approximates it; bounds were set here for any values at or beyond the usual limits of such assays; conditions: source organism: Hepatitis B virus subtype ayw
pKd: −log10 of the molar value.
property-label: pKd

Input line: I'm curious: which pKd was measured for "GLSRPLLRL" tested on HLA-A*02:01?
Output line: ≤ 5.30

----------
molecular target: HLA-B*51:01; assay: IEDB peptide-MHC binding, purified MHC/competitive/fluorescence; filed as Kd, often an IC50 or EC50 that approximates it; bounds were set here for any values at or beyond the usual limits of such assays; details: source organism: Orthohantavirus sinnombreense
property-label: Kd

Input line: Would you kindly share the measured Kd for "YTFTSLFSL" ?
Output line: ≥ 20 µM

----------
biological target: HLA-A*69:01; test: IEDB peptide-MHC binding, purified MHC/competitive/fluorescence; filed as Kd, often an IC50 or EC50 that approximates it; bounds were set here for any values at or beyond the usual limits of such assays; conditions: source organism: Burkholderia orbicola
property-label: Kd

Input line: Would you kindly share the measured Kd for "RIEQLYPFA" ?
Output line: ≥ 20 µM

----------
molecular target: HLA-A*29:02; experiment: IEDB peptide-MHC binding, purified MHC/competitive/fluorescence; filed as Kd, often an IC50 or EC50 that approximates it; bounds were set here for any values at or beyond the usual limits of such assays; conditions: source organism: Influenza B virus (B/Victoria/2/1987)
property-label: pKd
Answers are plain numbers, as −log10 of the molar value.

Input line: Would you kindly share the measured pKd for "GMIAGWHGY" ?
Output line: 8.80

----------
target: HLA-A*68:02; test: IEDB peptide-MHC binding, purified MHC/competitive/radioactivity; filed as Kd, often an IC50 or EC50 that approximates it; bounds were set here for any values at or beyond the usual limits of such assays; details: source organism: Dengue virus 4 Philippines/H241/1956
Task for the reader: assign each of the following sequences its reported Kd.
Give bare numbers, in nM.

Solved cases below.
INSERT INTO results (sequence_string, val) VALUES
  ('MAVLFVVTLI', 533),
  ('LVMLLVHYA', 369);

# ---- query sequence ----
Input line: Would you kindly share the measured Kd for "TSMAMTCIAV" ?
Output line: 1.66

----------
biological target: HLA-A*68:01; experiment: IEDB peptide-MHC binding, purified MHC/competitive/radioactivity; filed as Kd, often an IC50 or EC50 that approximates it; bounds were set here for any values at or beyond the usual limits of such assays; conditions: source organism: Dengue virus 2 Jamaica/1409/1983
property-label: pKd
Give bare numbers, as −log10 of the molar value.

Solved cases below.
INSERT INTO measurements (sequence_string, property_label, val) VALUES
  ('LTALNDMGK', 'pKd', 6.28),
  ('LMYFHRRDLR', 'pKd', 6.68),
  ('TTFVTPMLR', 'pKd', 8.42);

# ---- query sequence ----
Input line: Would you kindly share the measured pKd for "ITYKCPLLR" ?
Output line: 7.23

----------
molecular target: HLA-A*02:19; assay: IEDB peptide-MHC binding, purified MHC/direct/fluorescence; filed as Kd, often an IC50 or EC50 that approximates it; bounds were set here for any values at or beyond the usual limits of such assays; details: source organism: Encephalitozoon cuniculi GB-M1
pKd: −log10 of the molar value.
property-label: pKd

Input line: Would you kindly share the measured pKd for "FSFFMNENF" ?
Output line: ≤ 4.70

----------
molecular target: HLA-A*31:01; assay: IEDB peptide-MHC binding, purified MHC/direct/fluorescence; filed as Kd, often an IC50 or EC50 that approximates it; bounds were set here for any values at or beyond the usual limits of such assays; conditions: source organism: Vibrio vulnificus
property-label: Kd

Input line: Would you kindly share the measured Kd for "VNGVKGIQF" ?
Output line: ≥ 20 µM

----------
molecular target: HLA-A*26:01; assay: IEDB peptide-MHC binding, purified MHC/direct/fluorescence; filed as Kd, often an IC50 or EC50 that approximates it; bounds were set here for any values at or beyond the usual limits of such assays; conditions: source organism: Vibrio cholerae O395
property-label: Kd

Input line: Would you kindly share the measured Kd for "VVSEIDLQW" ?
Output line: ≥ 20 µM
